Below, each entry is listed alongside its reported mean percentage of viable cells ± SD.
test system: AGS cell lines (human gastric adenocarcinoma); experiment: MTT reduction cytotoxicity assay; type: cell-based; details: 0.5 μg/mL, 24 h

Answered examples (3):
Which mean percentage of viable cells ± SD value belongs to CC1CC(=O)OC(c2ccc(F)cc2)C1Br (mixture of isomers) [8c] ?
58 ± 0.10%

Which mean percentage of viable cells ± SD value belongs to CC1CC(=O)OC(c2ccc(F)cc2)C1Cl (mixture of isomers) [6c] ?
37 ± 0.05%

Which mean percentage of viable cells ± SD value belongs to CC1CC(=O)OC(c2cccc3ccccc23)C1Cl (mixture of isomers) ?
28 ± 0.07%

New cases:
Which mean percentage of viable cells ± SD value belongs to CC1CC(=O)OC(c2ccccc2)C1Br (mixture of isomers) ?
35 ± 0.10%

Which mean percentage of viable cells ± SD value belongs to CC1CC(=O)OC(c2ccc(F)cc2)C1Br (centres unmarked) [7c] ?
49 ± 0.06%

Which mean percentage of viable cells ± SD value belongs to CC1CC(=O)OC(c2ccccc2)C1Cl (mixture of isomers) ?
35 ± 0.02%

Which mean percentage of viable cells ± SD value belongs to CC1CC(=O)OC(c2cccc3ccccc23)C1Br (mixture of isomers) ?
47 ± 0.06%

Which mean percentage of viable cells ± SD value belongs to CC1CC(=O)OC(c2ccc(F)cc2)C1I (mixture of isomers) [10c] ?
23 ± 0.15%

Which mean percentage of viable cells ± SD value belongs to CC1CC(=O)OC(c2ccc(F)cc2)C1I (centres unmarked) [9c] ?
43 ± 0.15%

Which mean percentage of viable cells ± SD value belongs to CC1CC(=O)OC(c2ccc(F)cc2)C1Cl (centres unmarked) [5c] ?
47 ± 0.12%

Which mean percentage of viable cells ± SD value belongs to CC1CC(=O)OC(c2ccccc2)C1I (mixture of isomers) [10b] ?
43 ± 0.02%
